- TARGET ENTITY: Ileal sodium/bile acid cotransporter (Homo sapiens)
- PROTOCOL DETAILS: In vitro inhibition of ASBT mediated uptake of [14C]taurocholate (5 uM) in Baby hamster cells expressing human IBAT
MEASURE: IC50 (nM)

Worked set:
CCCC[C@]1(CC)CS(=O)(=O)c2ccc(SC)cc2[C@@H](c2ccc(F)cc2)[C@H]1O    19
CCCCC1(CCCC)CS(=O)(=O)c2ccc(N(C)C)cc2[C@@H](c2ccc(F)cc2)[C@H]1O    10
CCCC[C@]1(CC)CS(=O)(=O)c2ccccc2[C@@H](c2ccccc2)[C@H]1O (racemic)    280
CCCC[C@]1(CC)CS(=O)(=O)c2ccc(-c3ccccc3)cc2[C@@H](c2cccc(OC)c2)[C@H]1O    180
CCCCC1(CCCC)CS(=O)(=O)c2ccc([N+](C)(C)C)cc2[C@@H](c2ccccc2)[C@H]1O    210

I: CCCC[C@]1(CC)CS(=O)(=O)c2ccc(C)cc2[C@@H](c2ccc(F)cc2)[C@H]1O
II: CCCC[C@]1(CC)CS(=O)(=O)c2ccc(NC(=O)OCc3ccccc3)cc2[C@@H](c2ccccc2)[C@H]1O
Exam item: Which record would sort first by descending IC50, I or II ? API: response body contains the label of the selected item.
Marked response: II
(II: 400 nM, I: 21 nM)

P: CCCCC1(CCCC)CS(=O)(=O)c2c(cccc2N(C)C)[C@@H](c2ccc(F)cc2)[C@H]1O
Q: CCCC[C@]1(CC)CS(=O)(=O)c2ccc(N(O)C(=O)OC(C)(C)C)cc2[C@@H](c2ccccc2)[C@H]1O
Exam item: Which record would sort first by descending IC50, P or Q ? API: response body contains the label of the selected item.
Marked response: Q
(Q: 2670 nM, P: 180 nM)

---

- TARGET ENTITY: Ileal sodium/bile acid cotransporter (Homo sapiens, UniProt Q12908)
- Sequence (Q12908 whole entry): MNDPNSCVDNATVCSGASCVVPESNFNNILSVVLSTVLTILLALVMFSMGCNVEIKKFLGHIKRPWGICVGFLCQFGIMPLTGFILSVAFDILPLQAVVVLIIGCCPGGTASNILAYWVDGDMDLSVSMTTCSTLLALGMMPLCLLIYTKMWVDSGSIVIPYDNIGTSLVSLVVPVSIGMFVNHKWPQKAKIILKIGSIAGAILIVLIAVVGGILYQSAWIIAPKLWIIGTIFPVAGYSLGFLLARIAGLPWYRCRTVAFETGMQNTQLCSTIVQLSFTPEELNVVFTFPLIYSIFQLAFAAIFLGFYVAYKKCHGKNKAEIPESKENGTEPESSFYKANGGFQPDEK
- PROTOCOL DETAILS: In vitro inhibition of ASBT mediated uptake of [14C]taurocholate (5 uM) in Baby hamster cells expressing human IBAT
pIC50: −log10 of the molar value.
MEASURE: pIC50

Worked set:
CCCC[C@]1(CC)CS(=O)(=O)c2ccccc2[C@@H](c2ccccc2)[C@@H]1O (racemic)    5.32
CCCC[C@]1(CC)CS(=O)(=O)c2ccc(Br)cc2[C@@H](c2cccc(OC)c2)[C@H]1O    7.15
CCCC[C@]1(CC)CS(=O)(=O)c2ccc(OC)cc2[C@@H](c2ccccc2)[C@H]1O    7.26
CCCCC1(CCCC)CS(=O)(=O)c2ccc(N(C)C)cc2[C@@H](c2ccc(OCCOCCOCC[N+](CC)(CC)CC)cc2)[C@H]1O.[Br-]    8.52

P: CCCC[C@]1(CC)CS(=O)(=O)c2ccc(NC(C)=O)cc2[C@@H](c2ccccc2)[C@H]1O
Q: CCCCC1(CCCC)CS(=O)(=O)c2ccc(N(C)C)cc2[C@@H](c2ccccc2)[C@H]1O
R: CCCCC1(CCCC)CS(=O)(=O)c2cc(OC)ccc2[C@@H](c2ccccc2)[C@H]1O
S: CCCCC1(CCCC)CS(=O)(=O)c2ccc(N(C)C)cc2[C@@H](c2ccc(OC)cc2)[C@H]1O
T: CCCCC1(CCCC)CS(=O)(=O)c2c(OC)cc(N(C)C)cc2[C@@H](c2ccc(OC)cc2)[C@H]1O
Exam item: Put the entries in order of pIC50, starting with the largest number. // rank by listing labels in the order requested
Marked response: T, S, Q, P, R
(T: 8.70, S: 8.15, Q: 7.89, P: 7.05, R: 6.72)

A: CCCCC1(CCCC)CS(=O)(=O)c2cc(N(C)C)ccc2[C@@H](c2ccccc2)[C@H]1O
B: CCCCC1(CCCC)CS(=O)(=O)c2ccc(Br)cc2[C@@H](c2ccccc2Br)[C@H]1O
Exam item: Kindly compare A with B and tell me which has the lower pIC50 figure. API: response body contains the label of the selected item.
Marked response: B

1: CCCCC1(CCCC)CS(=O)(=O)c2c(F)cccc2[C@@H](c2ccc(F)cc2)[C@H]1O
2: CCCC[C@]1(CC)CS(=O)(=O)c2ccc(NS(C)(=O)=O)cc2[C@@H](c2ccccc2)[C@H]1O
3: C=CCCCCCCCCOc1ccc2c(c1)S(=O)(=O)C[C@@](CC)(CCCC)[C@H](O)[C@@H]2c1ccccc1
Exam item: Put the entries in order of pIC50, starting with the largest number. // rank by listing labels in the order requested
Marked response: 1, 2, 3
(1: 6.74, 2: 6.22, 3: 4.80)

P: CCCC[C@]1(CC)CS(=O)(=O)c2ccc(NO)cc2[C@@H](c2ccccc2)[C@H]1O
Q: CCCC[C@]1(CC)CS(=O)(=O)c2ccc(N3CCCC3)cc2[C@@H](c2ccc(F)cc2)[C@H]1O
Exam item: Kindly compare P with Q and tell me which has the lower pIC50 figure. API: response body contains the label of the selected item.
Marked response: P
